Each entry below lists one item and its recorded yeast fitness value.
B1: tRNA (parent)
chain: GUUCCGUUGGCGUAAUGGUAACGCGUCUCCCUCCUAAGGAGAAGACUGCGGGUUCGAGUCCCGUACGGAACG

Variants of: B1
Assay: yeast fitness relative to wild type (ratio to wild type); higher = fitter; tRNA-Arg(CCU), competitive growth, 37 C, YPD
Variants at the floor of the assay were thinned out.
Answer with the value's number alone.

Solved entries (count: 5):
{"columns": ["variant", "test.value"],
 "data": [
  ["C4U A21G C46A G68U", 0.574],
  ["U2G C27G C33U", 0.644],
  ["G58A G67C", 0.988],
  ["A14C A65U", 0.62],
  ["A20U A36U", 0.639]
]}

Sample U26C C33G U59C ; yeast fitness observed: 0.515
